assay_name: Inhibition of thioredoxin-conjugated PolyQ-62 protein aggregation expressed in Escherichia coli DH5alpha at 20 uM relative to control
The label depends only on inhibition: True if it is at least 10%, False if it is smaller.

Ac-NWKWWPGIFD-NH2    True
Ac-ANWKWWPGIFD-NH2    True
Ac-SNWKWWAGIFD-NH2    True
Ac-SNWKWWPG-NH2    False
Ac-WKWWPGIFD-NH2    True

Asked: Quick check: does Ac-WWPGIFD-NH2 have inhibition greater than or equal to 10%?
Given back: False

Asked: Has Ac-SNWKWWPGIFA-NH2 a recorded inhibition greater than or equal to 10%?
Given back: True

Asked: Does inhibition meet or surpass 10% for Ac-WKWWPGIF-NH2 ?
Given back: True

Asked: Answer whether inhibition of Ac-SNWKWWPGIF-NH2 is greater than or equal to 10%.
Given back: True

Asked: Reported inhibition reaches at least 10% for Ac-KWWPGIFD-NH2 ?
Given back: False

Asked: Decide: is the reported value of inhibition for Ac-SNWKAWPGIFD-NH2 equal to or greater than 10%?
Given back: False

Asked: Given Ac-SNWKWWPGI-NH2 , state whether its inhibition is at least 10%.
Given back: False

Asked: Dear colleague, could you confirm whether Ac-SNWKWWPGIAD-NH2 has inhibition at or above 10%?
Given back: True
